Tested on: P-gp (human MDR1)
EXPERIMENTAL_DETAILS: MDCK-MDR1 permeability and P-gp efflux assay
Type: in vitro ADME, canine
CONDITION_INFO: dog, MDCK-MDR1
METRIC: Papp A→B (×10⁻⁶ cm/s)
I only need the number, in ×10⁻⁶ cm/s, no unit after it.

Prompt: GET /values?readout=Papp A→B&system=P-gp (human MDR1)&item= CN(C)c1nccc(-c2cnn3ncccc23)n1
Response: 71.4

###

// fold reduction in DYRK1A binding affinity lookup, one value per entry
TESTED_SYSTEM: DYRK1A (Homo sapiens, UniProt Q13627)
Assay type: binding
CONDITION_INFO: relative to reference compound/matched-molecular pair 11

>>> observed_result("COc1ccc2c(-c3ccnc(N(C)C)n3)cnn2n1 [Compound 65]")
"> 10 fold"
>>> observed_result("CN(C)c1cc(-c2cnn3ncccc23)ccn1 [Compound 113]")
"10 fold"

Prompt: Recorded fold reduction in DYRK1A binding affinity for COc1ccnn2ncc(-c3ccnc(N(C)C)n3)c12 [Compound 66] , please?
Response: ~2 fold

Prompt: Consider the compound shown here: Cc1ccc2c(-c3ccnc(N(C)C)n3)cnn2n1 [Compound 62] What is its recorded fold reduction in DYRK1A binding affinity?
Response: > 10 fold

Prompt: Given the compound Cc1ccnn2ncc(-c3ccnc(N(C)C)n3)c12 [Compound 64] , what is its reported fold reduction in DYRK1A binding affinity?
Response: ~10 fold

###

System: KINOMEscan panel (DiscoverX) of >400 wild-type human kinases
Assay type: binding
CONDITION_INFO: inhibitor concentration = 1 μM
METRIC: S score (35)
Please state the value as a number alone, without comment.

>>> observed_result("Cc1cnn2ncc(-c3ccnc(N(C)C)n3)c2c1")
0.027
>>> observed_result("F[C@@H]1CCN(c2nccc(-c3cnn4ncccc34)n2)C1")
0.011
>>> observed_result("CN(C)c1nccc(-c2cnn3ncccc23)n1")
0.027
>>> observed_result("N[C@H]1CCN(c2nccc(-c3cnn4ncccc34)n2)C1")
0.027
>>> observed_result("c1cnn2ncc(-c3ccnc(N4CCC45COC5)n3)c2c1")
0.042
>>> observed_result("CN(c1nccc(-c2cnn3ncccc23)n1)C1CC1")
0.013
>>> observed_result("C[C@H]1CCN(c2nccc(-c3cnn4ncccc34)n2)C1")
0.050
>>> observed_result("C[C@@H]1CCN(c2nccc(-c3cnn4ncccc34)n2)C1")
0.035

Prompt: S score (35) for CC1CCCN1c1nccc(-c2cnn3ncccc23)n1 (stereo not drawn) ?
Response: 0.004
